Examples of molecules with documented inhibition in vivo at 0.01 mg/kg follow.
# Tested on: amnesia of rats induced by scopolamine
# procedureSummary: Effects on scopolamine-induced amnesia (passive avoidance task, oral administration)
# Format: in vivo
# studyConditions: Rattus norvegicus, po; 0.01 mg/kg p.o., 60 min before retention trial; scopolamine hydrobromide 2 mg/kg i.p.; passive avoidance latency; male Strague Dawley rats; read-out: Inhibitory rate (%)

Please review the following examples before continuing.
INSERT INTO assay_data (molecule, result) VALUES
  ('O=C1N=C2C=CC=CN2C1(Cc1ccco1)Cc1ccco1 [Compound 32]', '77.4%'),
  ('O=C1N=C2C(O)=CC=CN2C1(Cc1ccccc1)Cc1ccccc1 [Compound 36]', '30%'),
  ('O=C1N=C2C=CC=CN2C1(Cc1ccc(O)cc1)Cc1ccc(O)cc1 [Compound 22]', '37.4%'),
  ('Nc1c2c(nc3ccccc13)CCCC2 [Compound B, 9-amino-1,2,3,4-tetrahydro-acridine, reference compound]', '24.1%'),
  ('CCCCC1(CCCC)C(=O)N=C2C=CC=CN21 [Compound 34]', '59.6%');

Pending molecule:
# lookup: amnesia of rats induced by scopolamine inhibition in vivo at 0.01 mg/kg, key = C=CCC1(CC=C)C(=O)N=C2C=CC=CN21 [Compound 23]
53.6%

* * *

recordedMetric: melting point

INSERT INTO measurements (smilesinput, result) VALUES
  ('CN(C)c1ccc(CC2(Cc3ccc(N(C)C)cc3)C(=O)N=C3C=CC=CN32)cc1', '> 300 °C'),
  ('N#Cc1ccc(CC2(Cc3ccc(C#N)cc3)C(=O)N=C3C=CC=CN32)cc1', '294 °C (dec.)'),
  ('O=C1N=C2C(NCc3ccccc3)=CC=CN2C1(Cc1ccccc1)Cc1ccccc1', '250 °C'),
  ('CC1(C)C(=O)N=C2C=CC=CN21', '200 to 202 °C'),
  ('CC1=CC2=NC(=O)C(Cc3ccccc3)(Cc3ccccc3)N2C(C)=C1', '237 to 238 °C');

For the molecule `O=C1N=C2C=CC=CN2C1(Cc1ccc(F)cc1)Cc1ccc(F)cc1` , report melting point.
290 to 292 °C

Name the recorded melting point of the item `O=C1N=C2C(OCc3ccccc3)=CC=CN2C1(Cc1ccccc1)Cc1ccccc1` in your answer.
240 to 241 °C

Provide only the value of recorded melting point for `O=C1N=C2C=CC=CN2C1(Cc1ccc([N+](=O)[O-])cc1)Cc1ccc([N+](=O)[O-])cc1`
> 300 °C

Please give the documented melting point of `O=C1N=C2C=CC=CN2C1(Cc1ccc(F)cc1F)Cc1ccc(F)cc1F`
269 to 271 °C

Find the measured melting point of `O=C1N=C2C=CC(Cl)=CN2C1(Cc1ccccc1)Cc1ccccc1` and report it.
246 to 248 °C

Complete the entry with melting point for `CCCCC1(CCCC)C(=O)N=C2C=CC=CN21`
100.5 to 102 °C

Name the recorded melting point of the molecule listed here: `COC1=CC=CN2C1=NC(=O)C2(Cc1ccccc1)Cc1ccccc1`
274 to 275 °C

Quickly give me recorded melting point for `O=C1N=C2C(Cl)=CC(Cl)=CN2C1(Cc1ccccc1)Cc1ccccc1`
260 to 261 °C

Provide one value: measured melting point of `NC1=CC=CN2C1=NC(=O)C2(Cc1ccccc1)Cc1ccccc1`
283 to 285 °C

Output measured melting point for this item: `CC(=O)NC1=CC=CN2C1=NC(=O)C2(Cc1ccccc1)Cc1ccccc1`
235 to 237 °C

Identify the reported melting point for the following entry. `Cc1cccc(CC2(Cc3cccc(C)c3)C(=O)N=C3C(OCc4ccccc4)=CC=CN32)c1`
233 to 235 °C

Give the value of melting point reported for the following: `O=C1N=C2C(O)=CC=CN2C1(Cc1ccccc1)Cc1ccccc1`
283 to 285 °C

Please indicate melting point recorded for `C#CCC1(CC#C)C(=O)N=C2C=CC=CN21`
172 to 175 °C

* * *

# Test system: amnesia of rats induced by scopolamine
# procedureSummary: Effects on scopolamine-induced amnesia (passive avoidance task, oral administration)
# Assay type: in vivo
# studyConditions: Rattus norvegicus, po; 0.01 mg/kg p.o., 60 min before retention trial; scopolamine hydrobromide 2 mg/kg i.p.; passive avoidance latency; male Strague Dawley rats; read-out: Inhibitory rate (%)
Returns Fulfilled if the recorded inhibition in vivo at 0.01 mg/kg is greater than or equal to 60%, and Not fulfilled otherwise.

A selection of reference data follows.
INSERT INTO measurements (compound, assignedclass) VALUES
  ('O=C1N=C2C(Cl)=CC(C(F)(F)F)=CN2C1(Cc1ccccc1)Cc1ccccc1 [Compound 13]', 'Not fulfilled'),
  ('O=C1N=C2C=CC=CN2C1(Cc1ccccc1)Cc1ccccc1 [Compound 10]', 'Fulfilled'),
  ('CN(C)c1ccc(CC2(Cc3ccc(N(C)C)cc3)C(=O)N=C3C=CC=CN32)cc1 [Compound 17]', 'Not fulfilled'),
  ('O=C1N=C2C=CC=CN2C1(CCCc1ccccc1)CCCc1ccccc1 [Compound 26]', 'Not fulfilled');

Turning now to a further record.
Given the entry CC1=CC=CN2C1=NC(=O)C2(Cc1ccccc1)Cc1ccccc1 [Compound 8] , answer whether its inhibition in vivo at 0.01 mg/kg meets or surpasses 60%.
Not fulfilled

* * *

Parameter melting point: see the listing below.

Illustrative cases are given below, each with its answer.
INSERT INTO measurements (compound, recordedmetric, result) VALUES
  ('C=CCC1(CC=C)C(=O)N=C2C=CC=CN21 [Compound 23]', 'melting point', '64 to 66 °C'),
  ('O=C1N=C2C(OC3CCCC3)=CC=CN2C1(Cc1ccccc1)Cc1ccccc1 [Compound 11]', 'melting point', '268 to 269 °C'),
  ('CC(c1ccccc1)C1(C(C)c2ccccc2)C(=O)N=C2C(OCc3ccccc3)=CC=CN21 (stereo not drawn) [Compound 7]', 'melting point', '234 to 235 °C'),
  ('O=C1N=C2C=CC=CN2C1(CCCc1ccccc1)CCCc1ccccc1 [Compound 26]', 'melting point', '227 to 228 °C'),
  ('O=C1N=C2C=CC=CN2C1(Cc1ccccc1)Cc1ccc(F)cc1 (stereo not drawn) [Compound 39]', 'melting point', '> 300 °C');

Identify melting point associated with the compound COc1ccc(CC2(Cc3ccc(OC)cc3)C(=O)N=C3C=CC=CN32)cc1 [Compound 19]
248 to 251 °C

Quickly give me recorded melting point for CCCC1(CCC)C(=O)N=C2C=CC=CN21 [Compound 29]
73 to 75 °C

Identify measured melting point corresponding to O=C1N=C2C=CC=CN2C1(Cc1cccs1)Cc1cccs1 [Compound 30]
289.5 °C (dec.)

Recall and state the measured melting point for C=CCOC1=CC=CN2C1=NC(=O)C2(Cc1ccccc1)Cc1ccccc1 [Compound 5] .
214 to 215 °C

* * *

Recorded melting point, one value per entry.

Guide cases for melting point, answers given:
INSERT INTO results (smilesinput, recordedmetric, result) VALUES
  ('O=C1N=C2C=CC=CN2C1(Cc1ccco1)Cc1ccco1', 'melting point', '205 °C (dec.)'),
  ('O=C(O)c1ccc(CC2(Cc3ccc(C(=O)O)cc3)C(=O)N=C3C=CC=CN32)cc1', 'melting point', '> 300 °C'),
  ('O=C1N=C2C=CC=CN2C1(Cc1ccc(O)cc1)Cc1ccc(O)cc1', 'melting point', '276.5 to 277.5 °C'),
  ('O=C1N=C2C=CC=CN2C1(Cc1cccc(Cl)c1)Cc1cccc(Cl)c1', 'melting point', '271 to 272 °C'),
  ('CC(C)OC1=CC=CN2C1=NC(=O)C2(Cc1ccccc1)Cc1ccccc1', 'melting point', '247 to 248 °C');

# return recorded melting point for input `O=C1N=C2C(OCC3CC3)=CC=CN2C1(Cc1ccccc1)Cc1ccccc1`
236 to 237 °C

Given `CC1=CC=CN2C1=NC(=O)C2(Cc1ccncc1)Cc1ccncc1` , respond with its melting point.
228 to 230 °C

Note melting point for the compound shown: `O=C1N=C2C(Cl)=CC(C(F)(F)F)=CN2C1(Cc1ccccc1)Cc1ccccc1`
234 to 236 °C

Write down melting point measured for item `C=CCC1(CC=C)C(=O)N=C2C(OCc3ccccc3)=CC=CN21`
160 to 162 °C

* * *

# Tested on: amnesia of rats induced by scopolamine
# procedureSummary: Effects on scopolamine-induced amnesia (passive avoidance task, oral administration)
# Format: in vivo
# studyConditions: Rattus norvegicus, po; 0.01 mg/kg p.o., 60 min before retention trial; scopolamine hydrobromide 2 mg/kg i.p.; passive avoidance latency; male Strague Dawley rats; read-out: Inhibitory rate (%)
// label = fulfilled if inhibition in vivo at 0.01 mg/kg is not less than 40%, otherwise not fulfilled

INSERT INTO assay_data (molecule, assignedclass) VALUES
  ('O=C1N=C2C=CC=CN2C1(Cc1ccccc1)Cc1ccc(F)cc1 (stereo not drawn)', 'fulfilled'),
  ('NC1=CC=CN2C1=NC(=O)C2(Cc1ccccc1)Cc1ccccc1', 'not fulfilled'),
  ('O=C1N(c2ccccc2)c2ccccc2C1(Cc1ccncc1)Cc1ccncc1 [Compound A, reference compound]', 'not fulfilled'),
  ('O=C1N=C2C=CC=CN2C1(Cc1cccs1)Cc1cccs1', 'fulfilled'),
  ('O=C1N=C2C=CC=CN2C1(Cc1ccc(F)cc1)Cc1ccc(F)cc1', 'fulfilled');

# next molecule below
Does the molecule `C#CCC1(CC#C)C(=O)N=C2C=CC=CN21` have recorded inhibition in vivo at 0.01 mg/kg that is 40% or more?
not fulfilled
